- Assay info: Studies 1 and 2, steady‐state plasma PK of filgotinib and its major metabolite
- Format: in vivo, human
- Condition parameters: human, plasma, oral, 300 mg, AUCtau of filgotinib, steady state, 300 mg once daily, study 2; arithmetic mean (coefficient of variation)
Readout kind: AUC (ng·h/mL)
The reply should contain only the number, in ng·h/mL.

Task item: Which AUC value is on record for O=C(Nc1nc2cccc(-c3ccc(CN4CCS(=O)(=O)CC4)cc3)n2n1)C1CC1 [Filgotinib] ?
Reply: 7710

----------
- Assay info: Studies 1 and 2, steady‐state plasma PK of filgotinib and its major metabolite
- Format: in vivo, human
- Condition parameters: human, plasma, oral, 150 mg, AUCtau of filgotinib, steady state, 150 mg once daily, study 2; arithmetic mean (coefficient of variation)
Readout kind: AUC (ng·h/mL)
Just the number in ng·h/mL, nothing appended.

Task item: Look up AUC for this compound: O=C(Nc1nc2cccc(-c3ccc(CN4CCS(=O)(=O)CC4)cc3)n2n1)C1CC1 [Filgotinib]
Reply: 6440

----------
- Assay info: Studies 1 and 2, steady‐state plasma PK of filgotinib and its major metabolite
- Assay type: in vivo, human
- Condition parameters: human, plasma, oral, 150 mg, AUCtau, other 4 patients, 150 mg once daily, study 2
Readout kind: AUC

Task item: # query: AUC of entry O=C(Nc1nc2cccc(-c3ccc(CN4CCS(=O)(=O)CC4)cc3)n2n1)C1CC1 [Filgotinib]
Reply: 4790 to 5290 ng·h/mL

----------
- Assay info: Studies 1 and 2, steady‐state plasma PK of filgotinib and its major metabolite
- Type: in vivo, human
- Condition parameters: human, plasma, oral, 30 mg
Readout kind: Tmax (h)
Supply the numeric figure in h, leaving out any unit text.

Task item: What does the record list as Tmax for O=C(Nc1nc2cccc(-c3ccc(CN4CCS(=O)(=O)CC4)cc3)n2n1)C1CC1 [Filgotinib] ?
Reply: 1

----------
- Assay info: Studies 1 and 2, steady‐state plasma PK of filgotinib and its major metabolite
- Format: in vivo, human
- Condition parameters: human, plasma, oral, 200 mg
Readout kind: Cmax (ng/mL)
Reply numerically in ng/mL, unit not repeated.

Task item: # input compound: `O=C(Nc1nc2cccc(-c3ccc(CN4CCS(=O)(=O)CC4)cc3)n2n1)C1CC1` ; wanted: its Cmax
Reply: 1430

----------
- Assay info: Studies 1 and 2, steady‐state plasma PK of filgotinib and its major metabolite
- Type: in vivo, human
- Condition parameters: human, plasma, oral, 30 mg
Readout kind: Cmax (ng/mL)
Express the result in ng/mL but write the number alone.

Task item: Quick one: Cmax of `O=C(Nc1nc2cccc(-c3ccc(CN4CCS(=O)(=O)CC4)cc3)n2n1)C1CC1` ?
Reply: 71.6

----------
- Assay info: Studies 1 and 2, steady‐state plasma PK of filgotinib and its major metabolite
- Format: in vivo, human
- Condition parameters: human, plasma, oral, 200 mg, AUCtau of filgotinib, steady state, 200 mg once daily, study 1; arithmetic mean (coefficient of variation)
Readout kind: AUC
Just the number plus its unit, please.

Task item: Return reported AUC; argument: `O=C(Nc1nc2cccc(-c3ccc(CN4CCS(=O)(=O)CC4)cc3)n2n1)C1CC1`
Reply: 5380 ng·h/mL

----------
- Assay info: Studies 1 and 2, steady‐state plasma PK of filgotinib and its major metabolite
- Type: in vivo, human
- Condition parameters: human, plasma, oral, 100 mg
Readout kind: Cmax

Task item: Please report the recorded Cmax for `O=C(Nc1nc2cccc(-c3ccc(CN4CCS(=O)(=O)CC4)cc3)n2n1)C1CC1` .
Reply: 730 ng/mL
